Where do the numbers come from? From paper PMC12410356.

Assignment: determine reported PGI d5 (relative PGI release) for the given compounds.
- System: E. multilocularis metacestode vesicles
- experiment: Phosphoglucose isomerase (PGI) release assay (damage-marker release) on metacestode vesicles
- Type: cell-based, Echinococcus multilocularis
- conditionParameters: overview screen, 10 μM, singlets, 5 days, relative to 0.1 % Triton X-100, DMSO subtracted
Enter your answer as a number in %; do not include the unit.

For the compound NC(=O)c1[nH]c2ccc(S(N)(=O)=O)cc2c1-c1ccccc1 , give its measured PGI d5 (relative PGI release) value.
1.2

For the compound Cc1nc(N(C)C(=O)Cc2ccc(-c3ccccn3)cc2)sc1S(N)(=O)=O , give its measured PGI d5 (relative PGI release) value.
-0.111

For the compound CC(=O)N1c2ccccc2NC2=C(C(=O)CC(C)(C)C2)C1c1ccc(OCc2ccccc2)cc1 (centres unmarked) , give its measured PGI d5 (relative PGI release) value.
1.18

For the compound CCc1ccc(C2CC(C(F)(F)F)n3ncc(C(=O)NCc4ccc(OC)cc4)c3N2)cc1 (centres unmarked) , give its measured PGI d5 (relative PGI release) value.
-0.786

For the compound O=C(O)c1ccc(-n2nc(-c3ccccc3O)nc2-c2ccccc2O)cc1 , give its measured PGI d5 (relative PGI release) value.
-1.416

For the compound CCOC(=O)Nc1cc(NC(C)CC(C)CN(CC)CC)c2nc(-c3ccccc3)c(-c3ccccc3)nc2n1 (centres unmarked) , give its measured PGI d5 (relative PGI release) value.
-2.798

For the compound Nc1nc(=O)[nH]cc1F , give its measured PGI d5 (relative PGI release) value.
-1.885

For the compound COc1cc(Cc2cc(N)nc(N)n2)cc(OC)c1OC , give its measured PGI d5 (relative PGI release) value.
1.265

For the compound O=c1cc(NCCCN[C@@H]2CCOc3c(Br)cc(Br)cc32)[nH]c2ccsc12 , give its measured PGI d5 (relative PGI release) value.
13.7393

For the compound C[C@@H](NC(=O)c1cccc(-c2cnc(-c3cc4ccccc4cn3)[nH]2)c1)c1ccc(F)cc1 , give its measured PGI d5 (relative PGI release) value.
2.451

For the compound COc1cc(Cc2cnc(N)nc2N)c2c(c1OC)OC(C1CC1)C=C2 (centres unmarked) , give its measured PGI d5 (relative PGI release) value.
-0.539

For the compound CC(C)Oc1cccc(NC(=O)c2ccccc2C(F)(F)F)c1 , give its measured PGI d5 (relative PGI release) value.
-2.405

For the compound CC1CCc2c(N3CCC(O)CC3)c(F)cc3c(=O)c(C(=O)O)cn1c23 (centres unmarked) , give its measured PGI d5 (relative PGI release) value.
-2.748

For the compound COCCn1cnc2c(O)nc(Nc3ccccc3)nc21 , give its measured PGI d5 (relative PGI release) value.
-0.2041

For the compound NC(=O)c1cnc2ccc(S(=O)(=O)c3ccccc3)cc2c1Nc1ccc(O)cc1 , give its measured PGI d5 (relative PGI release) value.
-0.9531

For the compound CO[C@@]1(NC(=O)Cc2cccs2)C(=O)N2C(C(=O)O)=C(COC(N)=O)CS[C@@H]21 , give its measured PGI d5 (relative PGI release) value.
-1.349

For the compound Nc1cnn(C2OC(CO)C(O)C2O)c(=O)n1 (centres unmarked) , give its measured PGI d5 (relative PGI release) value.
0.6182

For the compound Oc1c(C(Nc2ccccn2)c2ccccc2)ccc2cccnc12 (centres unmarked) , give its measured PGI d5 (relative PGI release) value.
-0.6323

For the compound CC(=O)N1CCN(c2ccc(OC[C@@H]3CO[C@@](Cn4ccnc4)(c4ccc(Cl)cc4Cl)O3)cc2)CC1 , give its measured PGI d5 (relative PGI release) value.
1.26

For the compound O=C(Nc1ccc(Cl)c(C(F)(F)F)c1)C(CCCl)C(=O)Nc1ccc(Cl)c(C(F)(F)F)c1 , give its measured PGI d5 (relative PGI release) value.
14.7528

For the compound FC(F)(F)Oc1ccc(Nc2ccc3cccc(Cl)c3n2)cc1 , give its measured PGI d5 (relative PGI release) value.
-0.01272

For the compound O=C(N[C@H](CCS)C(=O)N[C@H](Cc1ccccc1)C(=O)O)c1cc2ccccc2[nH]1 , give its measured PGI d5 (relative PGI release) value.
-0.9852

For the compound Cc1ccccc1NC(=O)Nc1cccc([N+](=O)[O-])c1 , give its measured PGI d5 (relative PGI release) value.
1.329

For the compound O=C(c1cc(O)nc2ccccc12)N1CCN(c2ccccc2)CC1 , give its measured PGI d5 (relative PGI release) value.
0.1357

For the compound COc1cc2c(O)c3c(c(-c4ccc5c(c4)OCO5)c2cc1OC)C(=O)OC3 , give its measured PGI d5 (relative PGI release) value.
-1.791

For the compound O=P(O)(O)C(CCCc1cccc(Oc2ccccc2)c1)S(=O)(=O)O (centres unmarked) , give its measured PGI d5 (relative PGI release) value.
0.5378

For the compound Nc1ccc2oc(=O)ccc2c1I , give its measured PGI d5 (relative PGI release) value.
0.09331

For the compound Fc1ccc(-c2nc(-c3c[nH]c4ccc(Br)cc34)[nH]c2-c2ccc(F)cc2)cc1 , give its measured PGI d5 (relative PGI release) value.
27.6196

For the compound CC(C)Nc1nc2cc(Cl)c(Cl)cc2n1[C@H]1O[C@@H](CO)[C@H](O)[C@@H]1O , give its measured PGI d5 (relative PGI release) value.
1.092

For the compound CCOc1ccc(/C=N/NC(=O)C2CC2c2ccc(C(C)(C)C)cc2)cc1OCC (centres unmarked) , give its measured PGI d5 (relative PGI release) value.
0.06885

For the compound CCOC(=O)/C=C/[C@H](C[C@@H]1CCNC1=O)NC(=O)[C@@H](CC(=O)[C@@H](NC(=O)c1cc(C)on1)C(C)C)Cc1ccc(F)cc1 , give its measured PGI d5 (relative PGI release) value.
0.4485

For the compound CSC[C@H]1CN(Cc2c[nH]c3c(N)ncnc23)C[C@@H]1O , give its measured PGI d5 (relative PGI release) value.
-1.805

For the compound COc1ccc(C)cc1NC(=O)c1ccc(S(=O)(=O)N2CCCCC2)cc1 , give its measured PGI d5 (relative PGI release) value.
-1.553

For the compound CC[C@@]1(O)C(=O)OCc2c1cc1n(c2=O)Cc2cc3c([N+](=O)[O-])cccc3nc2-1 , give its measured PGI d5 (relative PGI release) value.
0.7883

For the compound CCNC(=O)Nc1cc(-c2ccccc2)c(-c2cncc(C(=O)O)c2)cn1 , give its measured PGI d5 (relative PGI release) value.
-2.168
